Biological target: T1, recombinant human PD-1-his protein (human, UniProt Q15116 25-167)
T1 construct: also called hPD-1-his; not shown: his tag
T1 sequence (Q15116 25-167 limits assumed): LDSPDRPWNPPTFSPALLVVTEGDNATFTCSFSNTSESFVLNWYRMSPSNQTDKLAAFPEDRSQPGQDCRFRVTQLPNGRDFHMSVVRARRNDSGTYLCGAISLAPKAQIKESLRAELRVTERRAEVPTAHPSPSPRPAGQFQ
Experiment: ELISA; PD-1-his coated 2 µg/mL, anti-human IgG Fc-HRP
Experimental: The plates were washed three times with PBST. 5% PBS-Milk was added and incubated at room temperature for 2 h. The plates were washed three times with PBST. All the nanobody-Fc fusion proteins were subject to 3-fold gradient dilutions with an initial concentration of 10 μg/mL, added into each well at 30 μL/well, and incubated at room temperature for 1 hr. The plates were washed three times with PBST. […] The OD450 absorbance value was read by a microplate reader. […]
pEC50: −log10 of the molar value.
// reported pEC50 for each item listed

[
  {
    "Binder": "MHPD1-A-6 H Fc (Fc fusion, not shown: a dimerising Fc or GST; small tags and cut ends) VHH: QVQLVESGGGLVQPGGSLRLSCAASGRRPSIYAMGWFRQAPGKGLEFVAGIGWNYATTYYADSVKGRFTISRDNTKNTLYLQMNSLRAEDTAVYYCAADLDHSGFDYWGQGTLVTVSS",
    "pEC50": 9.80
  },
  {
    "Binder": "MHPD1-A-12 H Fc (Fc fusion, not shown: a dimerising Fc or GST; small tags and cut ends) VHH: QVQLVESGGGLVQPGGSLRLSCAASGSDYAIYAMGWFRQAPGKGLEFVAGIGWAFATTYYADSVKGRFTISRDNTKNTLYLQMNSLRAEDTAVYYCAADLDHSGFDYWGQGTLVTVSS",
    "pEC50": 9.51
  },
  {
    "Binder": "MHPD1-A-14 H Fc (Fc fusion, not shown: a dimerising Fc or GST; small tags and cut ends) VHH: QVQLVESGGGLVQPGGSLRLSCAASSHRPSIYAMGWFRQAPGKGLEFVAGIGWRYATTYYADSVKGRFTISRDNTKNTLYLQMNSLRAEDTAVYYCAADLDHSGFDYWGQGTLVTVSS",
    "pEC50": 8.91
  },
  {
    "Binder": "MHPD1-A-13 H Fc (Fc fusion, not shown: Fc) QVQLVESGGGLVQPGGSLRLSCAASHADPSIYAMGWFRQAPGKGLEFVAGIGWNYATTYYADSVKGRFTISRDNTKNTLYLQMNSLRAEDTAVYYCAADLDHSGFDYWGQGTLVTVSS",
    "pEC50": 9.85
  },
  {
    "Binder": "MHPD1-A-7 H Fc (Fc fusion, parent of the second round; also called parent MHPD1-A-7 H Fc; not shown: Fc) QVQLVESGGGLVQPGGSLRLSCATSGSRRSIYAMGWFRQAPGKGLEFVAGIGWAYATTYYADSVKGRFTISRDNTKNTLYLQMNSLRAEDTAVYYCAADLDHSGFDYWGQGTLVTVSS",
    "pEC50": 9.87
  },
  {
    "Binder": "MHPD1-A-9 H Fc (Fc fusion, not shown: a dimerising Fc or GST; small tags and cut ends) VHH: QVQLVESGGGLVQPGGSLRLSCAASGSGHSIYAMGWFRQAPGKGLEFVAGIGWSYATTYYADSVKGRFTISRDNTKNTLYLQMNSLRAEDTAVYYCAADLDHSGFDYWGQGTLVTVSS",
    "pEC50": 9.79
  },
  {
    "Binder": "MHPD1-A-5 H Fc (Fc fusion, not shown: a dimerising Fc or GST; small tags and cut ends) VHH: QVQLVESGGGLVQPGGSLRLSCAASGSSLSIYAMGWFRQAPGKGLEFVAGIGWAYATTYYADSVKGRFTISRDNTKNTLYLQMNSLRAEDTAVYYCAADLDHSGFDYWGQGTLVTVSS",
    "pEC50": 9.80
  },
  {
    "Binder": "MHPD1-A-H19 Fc (Fc fusion, not shown: a dimerising Fc or GST; small tags and cut ends, Second round of humanization; also called humanized nanobody-Fc fusion protein; parent MHPD1-A-H19 Fc) VHH: QVQLVESGGGLVQPGGSLRLSCAASGSDPSIYAMGWFRQAPGKGLEFVAGIGWSAATTYYADSVKGRFTISRDNTKNTLYLQMNSLRAEDTAVYYCAADLDHSGFDYWGQGTLVTVSS",
    "pEC50": 9.43
  }
]
